Conditions: in water, 288.15 K
MEASURED_PARAMETER: solubility (mole fraction)
Hey, just send me the number, nothing else.

So, N[C@@H](Cc1ccccc1)C(=O)O ? Its solubility (mole fraction) was 0.00219

###

Conditions: in methanol, 288.15 K
MEASURED_PARAMETER: solubility (mole fraction)

So, N[C@@H](Cc1ccccc1)C(=O)O ? Its solubility (mole fraction) was 0.00032

###

Conditions: in ethanol, 288.15 K
MEASURED_PARAMETER: solubility (mole fraction)
Hey, just send me the number, nothing else.

So, N[C@@H](Cc1ccccc1)C(=O)O ? Its solubility (mole fraction) was 8.9e-05

Hello, the source for this data is BigSolDB 2.1, in case you need it.
